# target.system: Mouse ACVR2A (mouse, UniProt P27038 20-135, limits assumed); note: test concentration or dose not given here
# Sequence (P27038 20-135 limits assumed): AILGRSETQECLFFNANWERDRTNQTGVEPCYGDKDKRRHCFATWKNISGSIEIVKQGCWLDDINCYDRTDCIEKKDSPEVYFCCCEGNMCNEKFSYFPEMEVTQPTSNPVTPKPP
# procedure.text: ELISA
readout.kind: optical density (OD)
The reply should be a number in OD, with the unit left off.

binder: 365_H05 (antibody, V domains shown, VH/VL only) VH: EVQLLESGGGLVQPGGSLRLSCAASGFTFSSYGMNWVRQAPGKGLEWVAGINYNGGYTSYADSVKGRFTISRDNSKNTLYLQMNSLRAEDTAVYYCARGATWHDTHLDYWGQGTLVTVSS VL: DIQMTQSPSSLSASVGDRVTITCRASQSILTYVNWYQQKPGKAPKLLIYAATSLHSGVPSRFSGSGSGTDFTLTISSLQPEDFATYYCQQSYSTPLTFGGGTKVEIK
optical density (OD): 2.19

Okay, next one:
Data request, read-out optical density, for 367_A04 (antibody, V domains shown, VH/VL only) VH: EVQLLESGGGLVQPGGSLRLSCAASGFTFSSYSMNWVRQAPGKGLEWVSNINYNSGYKSYADSVKGRFTISRDNSKNTLYLQMNSLRAEDTAVYYCARSANWHDTALDYWGQGTLVTVSS VL: DIQMTQSPSSLSASVGDRVTITCRASQSIITYLNWYQQKPGKAPKLLIYAATSRASGVPSRFSGSGSGTDFTLTISSLQPEDFATYYCQQSDDSPLTFGGGTKVEIK 2.2
